# TARGET OR TEST SYSTEM: human P2Y12 receptor H253S mutant (Homo sapiens, UniProt Q9H244, H253S)
# Sequence (Q9H244 whole entry H253S): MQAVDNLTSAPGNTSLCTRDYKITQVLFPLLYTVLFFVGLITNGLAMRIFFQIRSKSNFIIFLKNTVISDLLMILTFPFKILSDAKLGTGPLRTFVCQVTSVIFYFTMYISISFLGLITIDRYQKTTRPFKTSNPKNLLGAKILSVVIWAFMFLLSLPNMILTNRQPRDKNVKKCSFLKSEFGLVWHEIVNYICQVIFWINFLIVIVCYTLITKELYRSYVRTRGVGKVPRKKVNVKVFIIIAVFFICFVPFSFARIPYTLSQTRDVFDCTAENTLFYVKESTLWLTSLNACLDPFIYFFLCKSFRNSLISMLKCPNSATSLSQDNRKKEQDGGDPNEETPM
# ASSAY PROCEDURE: cAMP assay, CHO-K1 cells expressing H253S mutant P2Y12
ASSAY READOUT: IC50

// lookup IC50 | system=human P2Y12 receptor H253S mutant (Homo sapiens, UniProt Q9H244, H253S) | key= Nc1ncnc2c1ncn2[C@@H]1O[C@H](COP(=O)(O)OP(=O)(O)O)[C@@H](O)[C@H]1O [ADP, Adenosine diphosphate] 350 nM

----------
# TARGET OR TEST SYSTEM: human P2Y12 receptor F198P mutant (Homo sapiens, UniProt Q9H244, F198P)
# Sequence (Q9H244 whole entry F198P): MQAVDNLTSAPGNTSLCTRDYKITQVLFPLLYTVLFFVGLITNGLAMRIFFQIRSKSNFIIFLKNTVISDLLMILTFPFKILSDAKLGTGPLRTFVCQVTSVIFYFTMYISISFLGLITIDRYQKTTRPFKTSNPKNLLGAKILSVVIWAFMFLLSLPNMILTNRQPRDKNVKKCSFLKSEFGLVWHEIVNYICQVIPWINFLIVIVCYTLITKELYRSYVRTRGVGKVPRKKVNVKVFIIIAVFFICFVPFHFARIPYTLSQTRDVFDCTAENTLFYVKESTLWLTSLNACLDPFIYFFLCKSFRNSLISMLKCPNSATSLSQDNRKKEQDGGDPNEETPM
# ASSAY PROCEDURE: cAMP assay, CHO-K1 cells expressing F198P mutant P2Y12
ASSAY READOUT: pIC50
Formally, pIC50 is defined as -log10 of the concentration c, with c in mol/L.

If you can, please state the reported pIC50 value of Nc1ncnc2c1ncn2[C@@H]1O[C@H](COP(=O)(O)OP(=O)(O)O)[C@@H](O)[C@H]1O [ADP, Adenosine diphosphate] . 6.82

----------
# TARGET OR TEST SYSTEM: human P2Y12 receptor wild-type (Homo sapiens)
# Sequence (Q9H244 whole entry): as the sequence (Q9H244 whole entry H253S) above, with S253H counted along it
ASSAY READOUT: IC50 (nM)
Write the answer as a number in nM, unit excluded.

If you can, please state the reported IC50 value of Nc1ncnc2c1ncn2[C@@H]1O[C@H](COP(=O)(O)OP(=O)(O)O)[C@@H](O)[C@H]1O [ADP, Adenosine diphosphate] . 250

----------
# TARGET OR TEST SYSTEM: human P2Y12 receptor R256Q mutant (Homo sapiens, UniProt Q9H244, R256Q)
# Sequence (Q9H244 whole entry R256Q): as the sequence (Q9H244 whole entry F198P) above, with P198F, R256Q counted along it
# ASSAY PROCEDURE: cAMP assay, CHO-K1 cells expressing R256Q mutant P2Y12
ASSAY READOUT: pIC50
Formally, pIC50 is defined as -log10 of the concentration c, with c in mol/L.

If you can, please state the reported pIC50 value of Nc1ncnc2c1ncn2[C@@H]1O[C@H](COP(=O)(O)OP(=O)(O)O)[C@@H](O)[C@H]1O [ADP, Adenosine diphosphate] . 6.24

----------
# TARGET OR TEST SYSTEM: human P2Y12 receptor R256Q/R265W double mutant (Homo sapiens, UniProt Q9H244, R256Q/R265W)
# Sequence (Q9H244 whole entry R256Q/R265W): as the sequence (Q9H244 whole entry H253S) above, with S253H, R256Q, R265W counted along it
# ASSAY PROCEDURE: cAMP assay, CHO-K1 cells expressing R256Q/R265W double mutant P2Y12
# Assay type: cell-based
ASSAY READOUT: IC50
Please give the number followed by its unit.

// lookup IC50 | system=human P2Y12 receptor R256Q/R265W double mutant (Homo sapiens, UniProt Q9H244, R256Q/R265W) | key= Nc1ncnc2c1ncn2[C@@H]1O[C@H](COP(=O)(O)OP(=O)(O)O)[C@@H](O)[C@H]1O [ADP, Adenosine diphosphate] 6.46 µM

----------
# TARGET OR TEST SYSTEM: human P2Y12 receptor R256T mutant (Homo sapiens, UniProt Q9H244, R256T)
# ASSAY PROCEDURE: cAMP assay, CHO-K1 cells expressing R256T mutant P2Y12
ASSAY READOUT: pIC50
Formally, pIC50 is defined as -log10 of the concentration c, with c in mol/L.

If you can, please state the reported pIC50 value of Nc1ncnc2c1ncn2[C@@H]1O[C@H](COP(=O)(O)OP(=O)(O)O)[C@@H](O)[C@H]1O [ADP, Adenosine diphosphate] . 6.54
